- Experimental protocol: Small angle X-ray scattering of multilamellar vesicles, electron density profiles
- Format: physicochemical
- Experimental parameters: PC/PG (9/1) MLVs, peptide/lipid 1/20 (w/w), 5 mM HEPES pH 7.4, 20°C

- Substance: "RRLRRLLRRLLRRLRR-Bi [RL16, secondary amphipathic polyarginine-leucine peptide with biotin (Bi) on N-terminus]"
  Display unit: "nm"
  S^−1 (repeat distance), Ld2 phase: 6.01
- Substance: "RRWWRRWRR-NH2 [RW9, short secondary amphipathic polyarginine-tryptophane peptide, free N-terminal amino group]"
  Display unit: "nm"
  S^−1 (repeat distance), Ld2 phase: 5.74
- Substance: "RPKPQQFFGLM-NH2 [SP, Substance P, neuromodulator, primary amphipathic peptide, free N-terminal amino group, reference compound]"
  Display unit: "nm"
  S^−1 (repeat distance), Ld2 phase: 5.75
- Substance: "RRWRRWWRRWWRRWRR-Bi [RW16, secondary amphipathic polyarginine-tryptophane peptide with biotin (Bi) on N-terminus]"
  Display unit: "nm"
  S^−1 (repeat distance), Ld2 phase: 5.89
- Substance: "RQIKIWFQNRRMKWKK-NH2 [pAntp, Penetratin, cell-penetrating peptide, basic, non-amphipathic, 16 residues, reference compound]"
  Display unit: "nm"
  S^−1 (repeat distance), Ld2 phase: 5.94
